Exercise: state measured EC50 (read off the curve) for each of the binders provided.
Molecular target: hRSV FTM- NN protein (membrane anchorless form of the Long fusion protein, 70 kDa) (hRSV strain Long)
Experiment: binding ELISA on immobilised FTM- protein; detection with rabbit anti-VHH and HRP goat anti-rabbit
Answers are plain numbers, in nM.

// solved cases for EC50 (read off the curve) follow
Binder	Numeric value
Nanobody NC41 (VHH) VHH: EVQLVESGGGLVQAGGSLSISCAASGGSLSNYVLGWFRQAPGKEREFVAAINWRGDITIGPPNVEGRFTISRDNAKNTGYLQMNSLAPDDTAVYYCGAGTPLNPGAYIYDWSYDYWGRGTQVTVSS	1
RSV116 (NC41-15GS-NC41) (bispecific antibody) EVQLVESGGGLVQAGGSLSISCAASGGSLSNYVLGWFRQAPGKEREFVAAINWRGDITIGPPNVEGRFTISRDNAKNTGYLQMNSLAPDDTAVYYCGAGTPLNPGAYIYDWSYDYWGRGTQVTVSSGGGGSGGGGSGGGGSEVQLVESGGGLVQAGGSLSISCAASGGSLSNYVLGWFRQAPGKEREFVAAINWRGDITIGPPNVEGRFTISRDNAKNTGYLQMNSLAPDDTAVYYCGAGTPLNPGAYIYDWSYDYWGRGTQVTVSS	0.3
Nanobody 7B2 (VHH) VHH: EVQLVESGGGLVQAGDSLRLSCAASGRTFSSYAMGWFRQAPGKEREFVAAISWSDGSTYYADSVKGRFTISRDNAKNTVYLQMNSLKPEDTAVYYCAADLTSTNPGSYIYIWAYDYWGQGTQVTVSS	0.3

With those in mind, consider the next binder.
Reported EC50 (read off the curve), binder Nanobody 15H8 (VHH) VHH: EVQLVESGGGLVQAGGSLRLSCAASGRSFSNYVLGWFRQAPGKEREFVAAISFRGDSAIGAPSVEGRFTISRDNAKNTGYLQMNSLVPDDTAVYYCGAGTPLNPGAYIYDWSYDYWGRGTQVTVSS : ____
1
